B1: Osa-1-4 twister ribozyme (parent)
chain: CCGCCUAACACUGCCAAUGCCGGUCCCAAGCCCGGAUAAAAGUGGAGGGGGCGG

Variants of: B1
Assay: self-cleavage, relative activity (ratio to wild type); higher = more cleavage; co-transcriptional
assay.readout: self-cleavage

Worked cases, self-cleavage given:
A46C U12A; 0.05
A17C G51A; 0.32
G51A U24C; 0.08
A29U C26U; 0.07
A38C C33A; 0.1
C26G G53A; 0.11
A7G U43C; 0.12
A46C G23U; 0.03
A40G A46U; 0.08
C15G G13C; 0.02

Looking up G13C G45U , I see its self-cleavage listed as 0.01

Looking up C15U G34A , I see its self-cleavage listed as 0.21

Looking up A46G G42C , I see its self-cleavage listed as 0.04

Looking up G44A U12C , I see its self-cleavage listed as 0.68

Looking up A16U C26U , I see its self-cleavage listed as 0.9

Looking up C25A G48U , I see its self-cleavage listed as 0.03

Looking up A29G G47U , I see its self-cleavage listed as 0.03

Looking up C32U U18A , I see its self-cleavage listed as 0.16

Looking up C26U G54A , I see its self-cleavage listed as 0.38

Looking up U37G U43A , I see its self-cleavage listed as 0.93
